Please provide measured % Moisture Absorption for the entries that follow.
# Assay Explanation: Moisture absorption test (hygroscopic properties) of test carriers
# Format: physicochemical
# Experimental Conditions: Table 3; 25° C., Humidity 90%; 72 Hours
Peptide text beside a SMILES is read from it.
Express the result in % but write the number alone.

IN: Return the recorded % Moisture Absorption value; entry: OC[C@H]1O[C@@H](O[C@H]2[C@H](O)[C@@H](O)C(O)O[C@@H]2CO)[C@H](O)[C@@H](O)[C@H]1O (stereo partly drawn) [Lactose 325M, Lactose]
OUT: 0.090

IN: Kindly indicate its recorded % Moisture Absorption. Item: `OC[C@@H](O)[C@@H](O)[C@H](O)[C@H](O)CO`
OUT: 0.916

IN: Entry `OC[C@@H](O)[C@@H](O[C@H]1O[C@H](CO)[C@@H](O)[C@H](O)[C@H]1O)[C@H](O)[C@@H](O)CO` needs its % Moisture Absorption filled in; supply it.
OUT: 3.373

IN: Report measured % Moisture Absorption; entry is `OC[C@@H](O)[C@@H](O)CO`
OUT: 0.070

IN: Look up % Moisture Absorption of COC(=O)[C@H](Cc1ccccc1)NC(=O)[C@@H](N)CC(=O)O [Aspartame] (H-Asp-Phe-OMe) and report it.
OUT: 11.521

----------
# Assay Explanation: Moisture absorption test (hygroscopic properties) of test carriers
# Assay type: physicochemical
# Experimental Conditions: Table 3; 25° C., Humidity 90%; 168 Hours
Peptide text beside a SMILES is read from it.
Quantity Name: % Moisture Absorption (%)
The reply should contain only the number, in %.

IN: Output % Moisture Absorption of `OC[C@@H](O)[C@@H](O)CO`
OUT: 0.070

IN: Please report % Moisture Absorption for the following compound: COC(=O)[C@H](Cc1ccccc1)NC(=O)[C@@H](N)CC(=O)O [Aspartame] (H-Asp-Phe-OMe)
OUT: 11.749

IN: Please report the measured % Moisture Absorption for `OC[C@@H](O)[C@@H](O)[C@H](O)[C@H](O)CO`
OUT: 1.122

IN: Note down % Moisture Absorption recorded for OC[C@H]1O[C@@H](O[C@H]2[C@H](O)[C@@H](O)C(O)O[C@@H]2CO)[C@H](O)[C@@H](O)[C@H]1O (stereo partly drawn) [Lactose 325M, Lactose]
OUT: 0.092

IN: Specify reported % Moisture Absorption for the compound shown: `OC[C@@H](O)[C@@H](O[C@H]1O[C@H](CO)[C@@H](O)[C@H](O)[C@H]1O)[C@H](O)[C@@H](O)CO`
OUT: 8.391

----------
# Assay Explanation: Moisture absorption test (hygroscopic properties) of test carriers
# Format: physicochemical
# Experimental Conditions: Table 3; 25° C., Humidity 90%; 48 Hours
Peptide text beside a SMILES is read from it.
Output class 1 for records whose % Moisture Absorption is lower than 0.8%, class 0 for records at or above 0.8%.

IN: Problem: For the compound OC[C@@H](O)[C@@H](O[C@H]1O[C@H](CO)[C@@H](O)[C@H](O)[C@H]1O)[C@H](O)[C@@H](O)CO [Amalty] , is % Moisture Absorption under 0.8%?
OUT: class 0

IN: # TODO verify % Moisture Absorption < 0.8% strictly for this compound: OC[C@@H](O)[C@@H](O)CO [Erythritol]
OUT: class 1

IN: Problem: For the compound OC[C@@H](O)[C@H](O)[C@@H](O)CO [Xylitol] , is % Moisture Absorption under 0.8%?
OUT: class 0

IN: Does the reported % Moisture Absorption of the following compound sit strictly below 0.8%? COC(=O)[C@H](Cc1ccccc1)NC(=O)[C@@H](N)CC(=O)O [Aspartame] (H-Asp-Phe-OMe)
OUT: class 0
